Reported values of Emax for individual entries
# target-or-test-system: human AMPK α1β1γ1 enzyme (Homo sapiens, UniProt Q13131+Q9Y478)
# Construct: purchased Carna Biosciences, Inc
# Sequence (Q13131 10-559 limits assumed): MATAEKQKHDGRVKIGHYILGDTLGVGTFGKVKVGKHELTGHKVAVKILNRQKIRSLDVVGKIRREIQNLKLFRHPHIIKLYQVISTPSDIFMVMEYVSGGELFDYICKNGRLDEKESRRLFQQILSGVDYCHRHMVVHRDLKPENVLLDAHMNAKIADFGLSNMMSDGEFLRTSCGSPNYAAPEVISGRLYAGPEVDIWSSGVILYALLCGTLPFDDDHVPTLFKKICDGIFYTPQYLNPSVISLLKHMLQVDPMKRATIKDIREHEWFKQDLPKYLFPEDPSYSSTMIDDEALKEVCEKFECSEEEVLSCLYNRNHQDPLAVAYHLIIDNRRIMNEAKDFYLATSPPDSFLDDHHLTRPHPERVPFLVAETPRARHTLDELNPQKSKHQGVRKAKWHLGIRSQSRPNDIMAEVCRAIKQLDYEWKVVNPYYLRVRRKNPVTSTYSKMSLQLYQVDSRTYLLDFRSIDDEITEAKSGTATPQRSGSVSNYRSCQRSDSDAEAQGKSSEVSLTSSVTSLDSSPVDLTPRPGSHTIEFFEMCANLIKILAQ
# Sequence (Q9Y478 whole entry): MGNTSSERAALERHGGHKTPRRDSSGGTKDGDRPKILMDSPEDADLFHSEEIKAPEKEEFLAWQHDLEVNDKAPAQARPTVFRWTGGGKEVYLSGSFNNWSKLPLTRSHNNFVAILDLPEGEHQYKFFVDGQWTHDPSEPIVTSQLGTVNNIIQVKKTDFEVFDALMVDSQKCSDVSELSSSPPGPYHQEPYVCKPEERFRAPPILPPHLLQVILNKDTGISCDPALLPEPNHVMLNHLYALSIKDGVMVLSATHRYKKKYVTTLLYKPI
# Sequence (P54619 whole entry partner): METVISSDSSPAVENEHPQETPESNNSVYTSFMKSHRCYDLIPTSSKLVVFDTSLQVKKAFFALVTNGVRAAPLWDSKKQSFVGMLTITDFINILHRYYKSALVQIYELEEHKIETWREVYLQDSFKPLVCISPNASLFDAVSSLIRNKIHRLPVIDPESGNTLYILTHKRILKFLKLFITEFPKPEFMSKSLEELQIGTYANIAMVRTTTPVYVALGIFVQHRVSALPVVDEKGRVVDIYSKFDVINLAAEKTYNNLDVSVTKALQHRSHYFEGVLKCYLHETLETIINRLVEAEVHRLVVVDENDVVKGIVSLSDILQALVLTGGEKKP
# measurement-protocol: AMPK activator evaluation, Test Example 1 (mobility shift, FL-Peptide 7)
# Type: biochemical
# run-conditions: human AMPK α1β1γ1, control without compound = 100%; read-out: Emax (maximum rate of increase in activity within the measurement range)

{"compound": "CC(=O)NC(C)(C)c1ccc(Oc2nc3nc(-c4ccc(C5COC5)cc4)c(Cl)cc3[nH]2)cc1", "Emax (%)": 238}
{"compound": "C#CC(C)Oc1nc2nc(-c3ccc(N4CCOCC4)cc3)c(Cl)cc2[nH]1 (centres unmarked)", "Emax (%)": 399}
{"compound": "O=C(O)c1ccc(Oc2nc3nc(-c4ccc(N5CCOCC5)cc4)c(Cl)cc3[nH]2)cc1", "Emax (%)": 269}
{"compound": "OCCc1ccc(Oc2nc3nc(-c4ccc(N5CCOCC5)cc4)c(Cl)cc3[nH]2)cc1", "Emax (%)": 301}
{"compound": "Cc1ccc(C(=O)O)cc1Oc1nc2nc(-c3ccc(N4CCOCC4)cc3)c(Cl)cc2[nH]1", "Emax (%)": 340}

* * *

# target-or-test-system: human AMPK α1β1γ1 enzyme (Homo sapiens, UniProt Q13131+Q9Y478)
# Construct: purchased Carna Biosciences, Inc
# measurement-protocol: AMPK activator evaluation, Test Example 1 (mobility shift, FL-Peptide 7)
# Type: biochemical
# run-conditions: human AMPK α1β1γ1, control without compound = 100%
measured-parameter: EC150 (compound concentration showing 150% relative to the control) (nM)

{"molecule": "C#CC(C)Oc1nc2nc(-c3ccc(N4CCOCC4)cc3)c(Cl)cc2[nH]1 (stereo not drawn) [Compound B-2]", "target-or-test-system": "human AMPK α1β1γ1 enzyme (Homo sapiens, UniProt Q13131+Q9Y478)", "assay-result": 3.6}
{"molecule": "Cc1ccc(Oc2nc3nc(-c4ccc(OCC(C)C)cc4)c(Cl)cc3[nH]2)cc1C(=O)O [Compound C-33]", "target-or-test-system": "human AMPK α1β1γ1 enzyme (Homo sapiens, UniProt Q13131+Q9Y478)", "assay-result": 52}
{"molecule": "Cc1ccc(Oc2nc3nc(-c4ccc(CO)cc4)c(Cl)cc3[nH]2)cc1C(=O)O [Compound B-13]", "target-or-test-system": "human AMPK α1β1γ1 enzyme (Homo sapiens, UniProt Q13131+Q9Y478)", "assay-result": 76}
{"molecule": "Cc1ccc(Oc2nc3nc(-c4ccc(N5CCOCC5)cc4)c(Cl)cc3[nH]2)cn1 [Compound B-119]", "target-or-test-system": "human AMPK α1β1γ1 enzyme (Homo sapiens, UniProt Q13131+Q9Y478)", "assay-result": 220}
{"molecule": "Cc1ccc(Oc2nc3nc(-c4ccc(N5CCOCC5)cc4)c(Cl)cc3[nH]2)cc1C(N)=O [Compound C-12]", "target-or-test-system": "human AMPK α1β1γ1 enzyme (Homo sapiens, UniProt Q13131+Q9Y478)", "assay-result": 140}
{"molecule": "Cc1ccc(Oc2nc3nc(N4CCCCC4)c(Cl)cc3[nH]2)cc1C(=O)O [Compound B-3]", "target-or-test-system": "human AMPK α1β1γ1 enzyme (Homo sapiens, UniProt Q13131+Q9Y478)", "assay-result": 23}
